# target-of-assay: MAPK14 (human) (UniProt Q16539)
# Sequence (Q16539 whole entry, looked up): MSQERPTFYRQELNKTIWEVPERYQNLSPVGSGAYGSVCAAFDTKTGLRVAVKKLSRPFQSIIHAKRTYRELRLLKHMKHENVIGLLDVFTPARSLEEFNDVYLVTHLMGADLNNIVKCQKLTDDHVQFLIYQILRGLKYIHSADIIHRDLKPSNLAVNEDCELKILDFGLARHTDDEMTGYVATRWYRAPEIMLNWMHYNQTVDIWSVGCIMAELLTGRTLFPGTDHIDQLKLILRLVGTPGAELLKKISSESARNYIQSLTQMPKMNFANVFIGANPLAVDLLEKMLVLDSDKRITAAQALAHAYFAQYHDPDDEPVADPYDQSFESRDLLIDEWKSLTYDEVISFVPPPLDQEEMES
# assay-notes: Inhibition of TNF-alpha Production in LPS Stimulated Whole Blood
# run-parameters: blood cells
pIC50: −log10 of the molar value.
experimental-readout: pIC50

                                   compound  observed_result
0  CSc1nc(-c2ccc(F)cc2)c(-c2ccnc(NC(C)=O)c2)n1CCOCCO           < 4.00
1  C=CCOCCn1c(SC)nc(-c2ccc(F)cc2)c1-c1ccnc(NC(C)=O)c1           < 4.00
2  CSc1nc(-c2ccc(F)cc2)c(-c2ccnc(NC(C)=O)c2)n1CCN1CCCCC1           < 5.00
3  CSc1nc(-c2ccc(F)cc2)c(-c2ccnc(NC(C)=O)c2)n1CCN1CCOCC1           < 5.00

----------
# target-of-assay: MAPK14 (human)
# assay-notes: p38-mediated IL-1 Inhibition (LPS-Stimulated PBMCs)
# run-parameters: pbmc
pIC50: −log10 of the molar value.
experimental-readout: pIC50

In [3]: df
Out[3]:
                                   compound  experimental_readout  observed_result
0  O=C1NCN2N=C(Sc3ccccc3Br)C=CC2=C1c1c(Cl)cccc1Cl                 pIC50             6.62

----------
Item-by-item account of activity
# target-of-assay: CDK2 (UniProt P24941)
# assay-notes: Enzyme Assay
# run-parameters: concentration not given here
experimental-readout: activity (%)

>>> print(df.to_string())
                                   compound  observed_result
0          COc1cccc(-c2cc(=O)c3ccccc3o2)c1N               95
1              Nc1n[nH]c(N)c1N=Nc1ccc(O)cc1               31
2  CN(C)CCCn1cc(C2=C(c3c[nH]c4ccccc34)C(=O)NC2=O)c2ccccc21               42
3  C[S+]([O-])c1ccc(-c2nc(-c3ccc(F)cc3)c(-c3ccncc3)[nH]2)cc1 (stereo unspecified)               91
4  CN1CCCC1CCn1cc(C2=C(c3c[nH]c4ccccc34)C(=O)NC2=O)c2ccccc21 (stereo unspecified)               25
5  Cn1cc(C2=C(c3cn(CCCN)c4ccccc34)C(=O)NC2=O)c2ccccc21               34

----------
# target-of-assay: MAPK14 (human) (UniProt Q16539)
# assay-notes: Assessment of MAPK14 Kinase Activity
pIC50: −log10 of the molar value.
The following ranges of pIC50 define the classes used here: group A (below 7), group B (7 to below 8), group C (8 or more)

                                   compound      cat
0  Cc1n[nH]c(C)c1-c1nncc2nc(Nc3ccc(F)cc3F)ccc12  group C
1  CCCCC=Cc1cccc(C(=O)Nc2ccc(OCCN3CCOCC3)c3ccccc23)c1  group A
2  O=C(Nc1ccc(OCCN2CCOCC2)c2ccccc12)c1cccc(-c2cccc(F)c2)c1  group A
3      CCc1nc(-c2ccc(OC)cc2)[nH]c1-c1ccncc1  group A
4  CSc1nc(-c2ccc(F)cc2)c(-c2ccnc(NC3CCc4ccccc43)c2)[nH]1 (stereo not given)  group B
5  O=C(Nc1ccc(Oc2ccnc(NC[C@@H]3CCCO3)n2)c2ccccc12)c1cc(F)cc(N2CCCCC2)c1  group C
6  CN1CCN(c2[nH]nc(-c3ccc(Cl)cc3)c2-c2ccncc2)CC1  group B
7     CC(C)Oc1n[nH]c2nc(Oc3ccc(F)cc3F)ncc12  group A

----------
# target-of-assay: MAPK14 (UniProt Q16539)
# Sequence (Q16539 whole entry, looked up): as above
# assay-notes: p38-alpha Inhibition
pIC50: −log10 of the molar value.
Item-by-item account of pIC50
experimental-readout: pIC50

In [3]: df
Out[3]:
                                   compound  experimental_readout  observed_result
0  CCOCn1c(-c2ccncc2)c(-c2ccc(F)cc2)c2ncccc21                 pIC50             7.68
1  COn1c(-c2ccncc2)c(-c2ccc(F)cc2)c2ncccc21                 pIC50             7.17
2  ON1=CC=C(C=C1)c2[nH]c3cccnc3c2c4ccc(F)cc4                 pIC50             5.60
3  ON1=CC=Cc2[nH]c(c3ccncc3)c(c4ccc(F)cc4)c12                 pIC50             5.17

----------
# target-of-assay: PIK3CG (human)
# assay-notes: Inhibition of PIK3CG Kinase Activity
Threshold check on IC50: strictly below 30 nM is Criterion met; on or above 30 nM is Criterion not met.

>>> print(df.to_string())
                                   compound                cat
0  O=C1NC(=S)S/C1=C\c1ccc2ncnc(N3CCC(F)CC3)c2n1      Criterion met
1  COc1ccc(OC)c(Nc2nc3ccccc3nc2NS(=O)(=O)c2cccnc2)c1  Criterion not met
2  OCc1cccc(-c2nc(N3CCOCC3)c3cnn(C4CCNCC4)c3n2)c1  Criterion not met
3  O=C1NC(=O)/C(=C/c2ccc(-c3cc(F)cc(F)c3O)o2)S1      Criterion met
4  CC1(C)CNC(=O)c2sc(N3CCOC[C@@H]3Cc3c[nH]c4ncccc34)nc2C1  Criterion not met
5  COC[C@H]1OC(=O)c2coc3c2[C@@]1(C)C1=C(C3=O)[C@@H]2CCC(=O)[C@@]2(C)C[C@H]1O      Criterion met
6  Oc1cccc(-c2nc(N3CCOCC3)c3[nH]cc(C4CCN(Cc5ccc(Cl)nc5)CC4)c3n2)c1  Criterion not met
7  Cc1cc(NCc2ccccc2)c2nc(N3CCOCC3)cc(=O)n2c1  Criterion not met
8  COc1cc2sc(C(=O)Nc3nnn[nH]3)c(OC3CCCC[C@H]3C)c2cc1OC (stereo not given in full)  Criterion not met

----------
# target-of-assay: EGFR (human)
# run-parameters: a431
experimental-readout: IC50

>>> df
                                   compound  observed_result
0  COc1ccc(/C=C/C(=O)Nc2cccc(Oc3cc(Nc4ccc(OCc5cccc(F)c5)c(Cl)c4)ncn3)c2)cc1OC          > 20 µM

----------
# target-of-assay: UniProtKB P00533
pIC50: −log10 of the molar value.
experimental-readout: pIC50

                                   compound  experimental_readout  observed_result
0  CO[C@H]1[C@@H](N(C)C2C=NC=CN2)C[C@@H]2O[C@@]1(C)n1c3ccccc3c3c4c(c5c6ccccc6n2c5c31)C(=O)NC4 (stereo partly specified)                 pIC50             5.09

----------
# target-of-assay: EGFR (human)
Item-by-item account of IC50
experimental-readout: IC50 (µM)

>>> print(df.to_string())
                                   compound  target_of_assay  observed_result
0        COc1cc2ncnc(Oc3ccc(Br)cc3F)c2cc1OC     EGFR (human)              5.9
1  COC(=O)Nc1ccc(Nc2ncnc3cc(OC)c(OC)cc23)cc1     EGFR (human)              6.9

----------
# target-of-assay: EGFR (UniProt P00533)
# Sequence (P00533 whole entry, looked up): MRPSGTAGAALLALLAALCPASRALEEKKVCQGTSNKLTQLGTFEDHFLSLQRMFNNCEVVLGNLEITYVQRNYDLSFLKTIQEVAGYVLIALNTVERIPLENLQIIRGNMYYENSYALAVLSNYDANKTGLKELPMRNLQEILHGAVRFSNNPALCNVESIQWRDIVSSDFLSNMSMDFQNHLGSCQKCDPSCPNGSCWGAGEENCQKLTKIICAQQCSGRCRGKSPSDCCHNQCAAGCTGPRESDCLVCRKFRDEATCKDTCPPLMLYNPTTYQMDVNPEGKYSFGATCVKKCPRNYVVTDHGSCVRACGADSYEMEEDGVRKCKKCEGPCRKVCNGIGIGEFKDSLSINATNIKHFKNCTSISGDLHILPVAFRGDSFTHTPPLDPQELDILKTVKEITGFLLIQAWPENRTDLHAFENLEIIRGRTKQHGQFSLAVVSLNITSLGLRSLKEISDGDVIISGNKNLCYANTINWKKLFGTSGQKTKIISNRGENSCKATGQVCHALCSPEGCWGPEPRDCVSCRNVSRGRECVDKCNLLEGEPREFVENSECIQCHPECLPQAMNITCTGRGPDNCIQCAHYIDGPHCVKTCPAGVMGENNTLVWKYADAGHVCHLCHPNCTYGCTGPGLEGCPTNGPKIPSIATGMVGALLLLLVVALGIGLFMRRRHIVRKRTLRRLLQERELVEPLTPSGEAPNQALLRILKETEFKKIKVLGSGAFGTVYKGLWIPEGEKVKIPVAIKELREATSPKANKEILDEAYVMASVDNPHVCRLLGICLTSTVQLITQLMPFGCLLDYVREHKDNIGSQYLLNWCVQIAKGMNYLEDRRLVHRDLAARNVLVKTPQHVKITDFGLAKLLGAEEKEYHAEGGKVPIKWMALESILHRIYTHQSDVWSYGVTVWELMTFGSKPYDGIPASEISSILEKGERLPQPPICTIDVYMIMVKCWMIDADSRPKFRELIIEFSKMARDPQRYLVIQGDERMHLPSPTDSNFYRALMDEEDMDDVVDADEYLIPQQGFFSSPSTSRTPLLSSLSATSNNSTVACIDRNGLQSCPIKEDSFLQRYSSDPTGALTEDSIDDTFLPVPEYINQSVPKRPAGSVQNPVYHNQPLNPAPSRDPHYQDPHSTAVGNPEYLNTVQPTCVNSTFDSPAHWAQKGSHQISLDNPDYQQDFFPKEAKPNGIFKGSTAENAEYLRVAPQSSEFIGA
pIC50: −log10 of the molar value.
experimental-readout: pIC50

>>> df
                                   compound  observed_result
0  CN(C)C[C@H]1CCn2c(c(C3=C(c4cn(C)c5ccccc45)C(=O)NC3=O)c3ccccc32)C1           < 4.00

----------
Dear all, this message contains IC50 results, target or system UniProt:P00533.
experimental-readout: IC50 (µM)

In [3]: df
Out[3]:
                                   compound  target_of_assay  observed_result
0         Cc1[nH]c2ncnc(N3CCc4ccccc43)c2c1C   UniProt:P00533             1.56
1  Nc1ccc(-c2cc3c(N4CCc5ccccc54)ncnc3[nH]2)cc1   UniProt:P00533             0.21
2        Cc1[nH]c2ncnc(N3CCCc4ccccc43)c2c1C   UniProt:P00533             2.69
3  Nc1ccc(-c2cc3c(N4CCCc5ccccc54)ncnc3[nH]2)cc1   UniProt:P00533            0.026

----------
# target-of-assay: CDK2 (human) (UniProt P24941)
# assay-notes: Enzyme Assay
experimental-readout: IC50 (nM)

                                   compound  observed_result
0  COc1cc(F)ccc1-c1cc(Nc2cc(CS(C)(=O)=NC#N)ccn2)ncc1F (stereo unspecified)             1420
